assay: Pharmacokinetics in male CD1 mice; type: in vivo; conditions: mouse, plasma; PO, 20 mg/kg, male CD1 mice
ENDPOINT: Cmax (ng/mL)

- O=C(CCCOc1ccc(I)cc1)NN1CCCOC1=O: 1280

###

assay: Pharmacokinetics in male CD1 mice; format: in vivo; settings: mouse, plasma; PO, 20 mg/kg, male CD1 mice
ENDPOINT: half-life (h)

• O=C(CCCOc1ccc(I)cc1)NN1CCCOC1=O = 5.18

###

test system: P. aeruginosa PAO1 biofilms; assay: Biofilm quantification, crystal violet assay; type: cell-based, Pseudomonas aeruginosa; details: Pseudomonas aeruginosa, PAO1; concentration 20.3125 (unit not given in Table S1; μM in method), 20 h; read-out: Inhibition ratio of biofilm
// inhibition at 20.3125 µM lookup, one value per entry
ENDPOINT: inhibition at 20.3125 µM (%)

• O=C(CCCOc1ccc2ccccc2c1)NN1CCOC1=O = 9.51
• CCCCCCCCCC(=O)N[C@H]1CCOC1=O [C10-HSL, reference compound] = -4.35
• O=C(CCCSc1ccc(Br)cc1)NN1CCOC1=O = 12.9
• O=C(CCCOc1cnc(Br)cn1)NN1CCOC1=O = 6.73
• O=C(CCCOc1cccc2ccccc12)NN1CCOC1=O = 15.3
• O=C(CCCOc1ccc(I)cc1)NN1CCCOC1=O = 21.1
• O=C(CCCOc1ccc(C(F)(F)F)cc1)NN1CCOC1=O = 18.8
• O=C(CCCOc1ccc(I)cc1)NN1CCOC1=O = 2.17
